Test Target: T1, Recombinant human CDK9/cyclin T1 (Homo sapiens, UniProt P50750)
T1 construct: purchased Carna bioscience 04-110
T1 sequence (P50750 whole entry): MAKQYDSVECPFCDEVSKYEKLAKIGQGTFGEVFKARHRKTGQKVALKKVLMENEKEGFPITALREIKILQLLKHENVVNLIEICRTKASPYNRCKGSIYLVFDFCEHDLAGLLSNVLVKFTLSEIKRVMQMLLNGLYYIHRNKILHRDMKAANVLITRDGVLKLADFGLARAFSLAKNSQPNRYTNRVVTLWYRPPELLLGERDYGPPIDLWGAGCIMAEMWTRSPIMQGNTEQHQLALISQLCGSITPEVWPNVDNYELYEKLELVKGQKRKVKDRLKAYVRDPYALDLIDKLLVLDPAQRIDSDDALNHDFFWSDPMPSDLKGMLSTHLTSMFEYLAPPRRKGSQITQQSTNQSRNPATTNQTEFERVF
T1 sequence (O60563 whole entry partner): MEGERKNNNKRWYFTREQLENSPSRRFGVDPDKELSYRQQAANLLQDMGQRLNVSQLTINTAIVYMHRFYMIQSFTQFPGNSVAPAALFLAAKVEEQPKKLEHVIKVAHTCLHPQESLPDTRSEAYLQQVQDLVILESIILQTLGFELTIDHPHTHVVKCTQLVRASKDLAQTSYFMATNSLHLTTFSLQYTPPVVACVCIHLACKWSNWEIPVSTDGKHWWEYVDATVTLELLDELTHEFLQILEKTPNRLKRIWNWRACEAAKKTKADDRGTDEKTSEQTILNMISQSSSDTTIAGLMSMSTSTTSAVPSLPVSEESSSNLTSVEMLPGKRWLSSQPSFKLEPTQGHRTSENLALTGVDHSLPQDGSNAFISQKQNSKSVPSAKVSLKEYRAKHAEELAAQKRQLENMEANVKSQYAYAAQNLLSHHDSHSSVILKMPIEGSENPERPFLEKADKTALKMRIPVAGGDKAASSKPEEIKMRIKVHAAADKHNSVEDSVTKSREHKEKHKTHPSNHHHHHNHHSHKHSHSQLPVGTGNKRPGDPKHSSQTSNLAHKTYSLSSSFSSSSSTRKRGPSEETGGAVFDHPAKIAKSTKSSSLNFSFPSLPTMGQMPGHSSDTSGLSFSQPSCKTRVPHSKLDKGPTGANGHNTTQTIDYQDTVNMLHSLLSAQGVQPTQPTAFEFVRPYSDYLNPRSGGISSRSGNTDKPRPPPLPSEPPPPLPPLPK
Method: CDK9 enzyme inhibitory activity (ADP-Glo kinase assay)
Type: biochemical
Condition Set: CDK9 enzyme activity; compound 100 nM; average of two independent repeats; read-out: Inhibition rate at different concentrations (%) 100 nM
Reported Metric: inhibition at 0.1 µM (%)

A. CC(=O)N[C@H]1CC[C@@H](NC(=O)Nc2cc(-c3cnn4c3CC(C)(C)C4)c(Cl)cn2)CC1 [Example 67]
B. COc1cc(F)ccc1-c1cc(NC(=O)NC2CCC(NC(C)=O)CC2)ncn1 (stereo not drawn) [Example 40]
Query: A or B : whose inhibition at 0.1 µM is greater? Which one? Tell me its label.
Reply: A

----------
Test Target: T1, Recombinant human CDK9/cyclin T1 (Homo sapiens, UniProt P50750)
T1 construct: purchased Carna bioscience 04-110
Method: CDK9 enzyme inhibitory activity (ADP-Glo kinase assay)
Format: biochemical
Condition Set: CDK9 enzyme activity; compound 100 nM; average of two independent repeats; read-out: Inhibition rate at different concentrations (%) 100 nM
Reported Metric: inhibition at 0.1 µM (%)

COCC(C)NC1CCC(NC(=O)Nc2cc(-c3ccc(F)cc3OC)c(Cl)cn2)CC1 (centres unmarked)
91

1. CC1(C)Cc2c(-c3cc(NC(=O)NC4CCC(NC(=O)OC(C)(C)C)CC4)ncc3Cl)cnn2C1 (centres unmarked)
2. CC(=O)N[C@H]1CC[C@H](NC(=O)Nc2cc(-c3cnn4c3CC(C)(C)C4)c(Cl)cn2)CC1
Query: Compare 1 and 2 and name the one whose reported inhibition at 0.1 µM is smaller. Choose, then provide that item's label.
Reply: 1
(1: 56%, 2: 84%)

1. COc1cc(F)ccc1-c1cc(NC(=O)NC2CCC(NC(=O)OC(C)(C)C)CC2)ncn1 (centres unmarked)
2. COc1cc(F)ccc1-c1ccnc(NC(=S)NC2CCC(N)CC2)c1 (centres unmarked)
Query: Task for the reader: decide whether 1 or 2 has the larger inhibition at 0.1 µM. Refer to your chosen entry by its label in the reply.
Reply: 1
(1: 55%, 2: 27%)

1. COc1cc(F)ccc1-c1cc(NC(=O)NC2CCC(NC(C)=O)CC2)ncc1F (centres unmarked)
2. COCCNC1CCC(NC(=O)Nc2cc(-c3cnn4c3CC(C)(C)C4)ccn2)CC1 (centres unmarked)
Query: // select label with min value of measured inhibition at 0.1 µM from [ 1 , 2 ] Mark your answer with the label of the selected entry.
Reply: 1

----------
Test Target: T1, Recombinant human CDK9/cyclin T1 (Homo sapiens, UniProt P50750)
T1 construct: purchased Carna bioscience 04-110
Method: CDK9 enzyme inhibitory activity (ADP-Glo kinase assay)
Type: biochemical
Condition Set: CDK9 enzyme activity; compound 10 nM; average of two independent repeats; read-out: Inhibition rate at different concentrations (%) 10 nM
Reported Metric: inhibition at 0.01 µM (%)

Previously resolved entries follow.
COc1cc(F)ccc1-c1cc(NC(=O)NC2CCC(NC(C)C)CC2)ncc1Cl (stereo not drawn) [Example 23]
37.2
CC1(C)Cc2c(-c3cc(NC(=O)NC4CCC(NCCF)CC4)ncc3Cl)cnn2C1 (stereo not drawn) [Example 61]
58.3
COc1cc(F)ccc1-c1cc(NC(=O)NC2CCC(NC(C)=O)CC2)ncc1F (stereo not drawn) [Example 30]
23.1
COCCNC1CCC(NC(=O)Nc2cc(-c3cnn(C)c3)ccn2)CC1 (stereo not drawn) [Example 14]
-7.6
COc1cc(F)ccc1-c1ccnc(NC(=O)NC2CC(N)C2)c1 (stereo not drawn) [Example 35]
30
CC1(C)Cc2c(-c3cc(NC(=O)NC4CCC(NC(=O)C5COC5)CC4)ncc3Cl)cnn2C1 (stereo not drawn) [Example 50]
53.2
COc1cc(F)c(F)cc1-c1ccnc(NC(=O)NC2CCC(N)CC2)c1 (stereo not drawn) [Example 5]
46.2
CC(=O)NC1CCCC(NC(=O)Nc2cc(-c3cnn4c3CC(C)(C)C4)c(Cl)cn2)C1 (stereo not drawn) [Example 79]
53
CC(=O)NC1CCC(NC(=O)Nc2cc(-c3cnn4c3CC(C)(C)C4)c(C3CC3)cn2)CC1 (stereo not drawn) [Example 53]
40.3
COCC[N+](C)(C)C1CCC(NC(=O)Nc2cc(-c3cnn4c3CC(C)(C)C4)c(Cl)cn2)CC1 (stereo not drawn) [Example 91]
63

1. CC1(C)Cc2c(-c3cc(NC(=O)NC4CCC(NC(=O)C5CC5)CC4)ncc3Cl)cnn2C1 (stereo not drawn) [Example 49]
2. COc1cc(F)ccc1-c1cc(NC(=O)NC2CCC(NC(C)=O)CC2)ncn1 (stereo not drawn) [Example 40]
3. CC1(C)Cc2c(-c3cc(NC(=O)NC4CCC(NC5COC5)CC4)ncc3Cl)cnn2C1 (stereo not drawn) [Example 63]
Query: Output the entries ranked by inhibition at 0.01 µM from maximum down to minimum. Form entry: ranked labels (order as requested).
Reply: 1, 3, 2
(1: 58%, 3: 40.2%, 2: 25.3%)

1. CC1(C)Cc2c(-c3cc(NC(=O)NC4CCC(NCCO)CC4)ncc3Cl)cnn2C1 (stereo not drawn) [Example 62]
2. COc1cc(F)ccc1-c1cc(NC(=O)NC2CCC(NC(C)=O)CC2)ncc1C#N (stereo not drawn) [Example 32]
Query: Which shows the larger inhibition at 0.01 µM value: 1 or 2 ? # reply format: chosen label
Reply: 1

----------
Test Target: T1, Recombinant human CDK9/cyclin T1 (Homo sapiens, UniProt P50750)
T1 construct: purchased Carna bioscience 04-110
Method: CDK9 enzyme inhibitory activity (ADP-Glo kinase assay)
Assay type: biochemical
Condition Set: CDK9 enzyme activity; compound 100 nM; average of two independent repeats; read-out: Inhibition rate at different concentrations (%) 100 nM
Reported Metric: inhibition at 0.1 µM (%)

CC(=O)NC1CCC(NC(=O)Nc2cc(-c3cnc(C)n3C(C)C)c(Cl)cn2)CC1 (centres unmarked)
72
COCCNC1CCC(NC(=O)Nc2cc(-c3ccc(F)cc3OC)c(Cl)cn2)CC1 (centres unmarked)
87.4
COc1cc(F)ccc1-c1ccnc(NC(=O)NC2CC(O)C2)c1 (centres unmarked)
62.8
CC1(C)Cc2c(-c3cc(NC(=O)NC4CCCC(N)CC4)ncc3Cl)cnn2C1 (centres unmarked)
83.7
COc1cc(F)ccc1-c1ccnc(NC(=O)Nc2ccc(F)nc2)c1
81

----------
Test Target: T1, Recombinant human CDK9/cyclin T1 (Homo sapiens, UniProt P50750)
T1 construct: purchased Carna bioscience 04-110
Method: CDK9 enzyme inhibitory activity (ADP-Glo kinase assay)
Assay type: biochemical
Condition Set: CDK9 enzyme activity; compound 10 nM; average of two independent repeats; read-out: Inhibition rate at different concentrations (%) 10 nM
Reported Metric: inhibition at 0.01 µM (%)

# count of solved cases: 3
COc1cc(F)ccc1-c1cc(NC(=O)NC2CCC(NCCC(F)(F)F)CC2)ncc1Cl (stereo not drawn)
39.3
CNC1CCC(NC(=O)Nc2cc(-c3cnn4c3CC(C)(C)C4)c(Cl)cn2)CC1 (stereo not drawn)
55.7
CC(=O)NC1CCC(NC(=O)Nc2cc(-c3cnn4c3COCC4)c(Cl)cn2)CC1 (stereo not drawn)
38

I. CC1(C)Cc2c(-c3cc(NC(=O)NC4CCNCC4)ncc3Cl)cnn2C1
II. [2H]C([2H])([2H])OCCNC1CCC(NC(=O)Nc2cc(-c3cnn4c3CC(C)(C)C4)c(Cl)cn2)CC1 (stereo not drawn)
III. COc1cc(F)ccc1-c1cc(NC(=O)NC2CCC(NC(C)=O)CC2)ncc1C (stereo not drawn)
IV. COc1cc(F)ccc1-c1ccnc(NC(=O)NC2CCCNCC2)c1 (stereo not drawn)
Query: Ordering criterion: inhibition at 0.01 µM; begin with the maximum. Reply format: the labels, ordered as requested.
Reply: II, I, III, IV

1. COCC(C)NC1CCC(NC(=O)Nc2cc(-c3ccc(F)cc3OC)c(Cl)cn2)CC1 (stereo not drawn)
2. CC1(C)Cc2c(-c3cc(NC(=O)NC4CCC(NC(=O)OC(C)(C)C)CC4)ncc3Cl)cnn2C1 (stereo not drawn)
3. CC(=O)N[C@H]1CC[C@H](NC(=O)Nc2cc(-c3cnn4c3CC(C)(C)C4)c(Cl)cn2)CC1
Query: List items by inhibition at 0.01 µM in falling order. Your reply should list the labels following the order given in the request.
Reply: 3, 1, 2
(3: 71%, 1: 45.2%, 2: 28%)

I. COc1cc(F)ccc1-c1cc(NC(=O)NC2CCC(NC(C)=O)CC2)ncc1Cl (stereo not drawn)
II. CC(=O)NC1CCC(NC(=O)Nc2cc(-n3cnc(C4CC4)c3)c(Cl)cn2)CC1 (stereo not drawn)
III. COc1cc(F)ccc1-c1ccnc(NC(=O)Nc2ccc(F)nc2)c1
Query: Rank entries according to their inhibition at 0.01 µM, from the largest number down. Answer by writing out the labels in the requested order.
Reply: I, II, III

----------
Test Target: T1, Recombinant human CDK9/cyclin T1 (Homo sapiens, UniProt P50750)
T1 construct: purchased Carna bioscience 04-110
Method: CDK9 enzyme inhibitory activity (ADP-Glo kinase assay)
Type: biochemical
Condition Set: CDK9 enzyme activity; compound 100 nM; average of two independent repeats; read-out: Inhibition rate at different concentrations (%) 100 nM
From the text: […]
Reported Metric: inhibition at 0.1 µM (%)

CC(=O)N[C@H]1CC[C@H](NC(=O)Nc2cc(-c3cnn4c3CC(C)(C)C4)c(Cl)cn2)C1 (stereo in doubt)
92
COc1cc(F)ccc1-c1cc(NC(=O)NC2CCC(NC(C)=O)CC2)ncc1C (stereo not shown)
51.3
COCCNC1CCCC(NC(=O)Nc2cc(-c3cnn4c3CC(C)(C)C4)c(Cl)cn2)C1 (stereo not shown)
56

I. COc1cc(F)ccc1-c1cc(NC(=O)NC2CCC(NC(C)=O)CC2)ncc1Cl (stereo not shown)
II. CCNC1CCC(NC(=O)Nc2cc(-c3cnn4c3CC(C)(C)C4)c(Cl)cn2)CC1 (stereo not shown)
Query: I need your help: which of the pair I , II has higher inhibition at 0.1 µM? Respond with the label that goes with your answer.
Reply: I
